Tested on: JR251 or RBL cells
Assay: Store-operated calcium entry, either JR251 or RBL cells, or both
Format: cell-based
measured-property: IC50

Worked set:
O=C(Nc1scc(-c2ccc(Cl)c(F)c2)c1C(=O)O)c1nc2ccccc2s1 ... < 10 µM
O=C(NCCc1ccccc1)Nc1scc(-c2ccc(Cl)cc2)c1C(=O)O ... < 10 µM
Cc1ccc(-c2csc(NC(=O)c3ccsc3)c2C(=O)O)cc1 ... < 10 µM

So what does the record say about IC50 for Cc1cc(Cl)ccc1-c1csc(NC(=O)c2nc3ccccc3o2)c1C(=O)O ? < 10 µM

So what does the record say about IC50 for CC(=O)Oc1cccc2cc(-c3csc(NC(=O)c4cc5ccccc5o4)c3C(=O)O)oc12 ? < 10 µM

So what does the record say about IC50 for Cc1cccc(C)c1CCC(=O)Nc1scc(-c2ccc(Cl)cc2)c1C(=O)O ? < 10 µM

====

Known IC50 of a selection of compounds
Test system: JR251 or RBL cells
Assay: Store-operated calcium entry, either JR251 or RBL cells, or both
Type: cell-based

Worked set:
O=C(Nc1scc(-c2ccc(Cl)cc2)c1C(=O)O)c1nc(C2CC2)cs1 ... < 10 µM
O=C(Nc1cccc(F)c1)Nc1scc(-c2ccc(Br)cc2)c1C(=O)O ... < 10 µM
O=C(O)c1c(-c2ccc(Cl)cc2)csc1NC(=O)C1Cc2ccccc2C1 ... < 10 µM
Cc1ccc(-c2csc(NC(=O)c3ccc(-c4cccs4)s3)c2C(=O)O)cc1 ... < 10 µM

So what does the record say about IC50 for O=C(Nc1scc(-c2ccc(Br)cc2)c1C(=O)O)c1ccncc1 ? < 10 µM

====

System: JR251 or RBL cells
Experiment: Store-operated calcium entry, either JR251 or RBL cells, or both
Format: cell-based
Experimental: The day prior to performing the assay, RBL-2H3 cells are plated in 50 μL of complete medium in a 384 well plate. Cells are grown at 37° C./6% CO2 overnight and grow to 50-60% confluence by the next day. […] The initial baseline fluorescence signal is measured with a FLIPR^384 (Molecular Devices) plate reader. 5 μL of 12× calcium in HBSS (12 mM) is added and changes in cellular fluorescence are measured with the FLIPR^384 plate reader. […]
measured-property: IC50

Worked set:
O=C(Nc1scc(-c2ccc(F)c(F)c2F)c1C(=O)O)c1nc2ccccc2o1 ... < 10 µM
O=C(Nc1scc(-c2ccc(Cl)c(Cl)c2)c1C(=O)O)c1ccc2snnc2c1 ... < 10 µM
O=C(O)c1c(-c2ccc(Cl)cc2)csc1NC(=O)[C@H](F)Cc1ccccc1Cl ... < 10 µM

So what does the record say about IC50 for O=C(Nc1scc(-c2ccc(Cl)c(Cl)c2)c1C(=O)O)c1ccsc1 ? < 10 µM

So what does the record say about IC50 for O=C(O)c1c(-c2ccc(Br)cc2)csc1NC(=O)C(F)Cc1cc(F)c(F)cc1Cl (centres unmarked) ? < 10 µM

So what does the record say about IC50 for O=C(Nc1scc(-c2ccc(Cl)cc2)c1C(=O)O)c1ccco1 ? < 10 µM

====

System: JR251 or RBL cells
Assay: Store-operated calcium entry, either JR251 or RBL cells, or both
Type: cell-based
Protocol: The day prior to performing the assay, RBL-2H3 cells are plated in 50 μL of complete medium in a 384 well plate. Cells are grown at 37° C./6% CO2 overnight and grow to 50-60% confluence by the next day. […] The initial baseline fluorescence signal is measured with a FLIPR^384 (Molecular Devices) plate reader. 5 μL of 12× calcium in HBSS (12 mM) is added and changes in cellular fluorescence are measured with the FLIPR^384 plate reader. […]
Known IC50 of a selection of compounds

Cc1ccc(-c2csc(NC(=O)c3nc4cc(Cl)ccc4o3)c2C(=O)O)c(F)c1F ... < 10 µM

So what does the record say about IC50 for COc1ccc(-c2csc(NC(=O)c3cc4ccccc4o3)c2C(=O)O)c(F)c1F ? < 10 µM

So what does the record say about IC50 for CC(Cc1ccccc1)C(=O)Nc1scc(-c2ccc(Br)cc2)c1C(=O)O (stereo not shown) ? < 10 µM

So what does the record say about IC50 for O=C(Nc1scc(-c2cc3cccc(OCc4ccccc4)c3o2)c1C(=O)O)c1cc2ccccc2o1 ? < 10 µM

So what does the record say about IC50 for O=C(Nc1scc(-c2cc(F)c(F)c(F)c2)c1C(=O)O)c1nc2ccccc2o1 ? < 10 µM

So what does the record say about IC50 for O=C(Nc1scc(-c2ccc(Br)cc2)c1C(=O)O)c1cccc(F)n1 ? < 10 µM

So what does the record say about IC50 for O=C(Nc1scc(-c2cc3cc(Br)ccc3o2)c1C(=O)O)c1cc2ccccc2o1 ? < 10 µM

So what does the record say about IC50 for Cc1nnsc1C(=O)Nc1scc(-c2ccc(Cl)cc2)c1C(=O)O ? < 10 µM

So what does the record say about IC50 for O=C(Nc1scc(-c2ccc(Br)cc2)c1C(=O)O)c1cc2ccccn2n1 ? < 10 µM

So what does the record say about IC50 for Cc1ccc(-c2csc(NC(=O)c3scc(S(=O)(=O)c4ccc(Cl)cc4)c3C)c2C(=O)O)cc1 ? < 10 µM
